- Tested on: PPARg:RXRa DBDmut IVT, anti-RXR (DBD mutation: RXRa K156A/R161A, NR concentration 270 nM, RXRa partner concentration 90 nM)
- testDescription: PBM binding z-score (relative to random genomic background probes); higher = stronger binding; sequences stand for … in GC…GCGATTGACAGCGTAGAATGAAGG
endpointLabel: PBM binding z-score
Kindly provide the number alone.

Would you please look over these solved cases?
biosequence | experimentalResult
ACAGACAGGTGATGAACGTAACTCAGGCTATCAT | -0.0291
CCTTACGGGTCACTGACAGGTTGTAGCATTTGGA | 3.45
ATCTCTAGGTAAAGATAGTGCAGTGAATGCAAAT | 1.33
TCTTGTATATCAGCAGGTTAAGAAAGCTGGCCAA | 2.07
CTCGAAAGGTCGGTTGAGGTGAGTATTCGGATAA | 0.311
ATCTCTAGGTAATCAAGTTCAGTGAATGCCGAAC | 2.71
CCTATTAGTTGACCATAAGGGCAAACGAAGCTCG | 0.266
TGACTGAGGTTATAAGATCAGGGAACGTTGCAAA | -0.568
TCTTGTCGATCAACAGGAGGTTAAGAAAGATCGA | 0.771
TCTAGTTGGTCAACGGTCACACACTCGAAATGCG | 2.4

Reported PBM binding z-score for "TATACAGGGTCAAAGGCCTGAGTACGAATGTCGA" was 2.08

Reported PBM binding z-score for "TCTTGTAGATCAAAGTTTAAGAAAGCCGAAGCCT" was 2.31

Reported PBM binding z-score for "AGTCAAAGTTCAGGACGAGGTAACGTCAAGCACG" was -0.313

Reported PBM binding z-score for "ACTAGCAGGCCAAGGTTGGGTCACTCAAACAAAG" was 0.282
